The entries below come with measured EC50 values attached.
- measured on: RXRα (Homo sapiens)
- Sequence (P19793 whole entry): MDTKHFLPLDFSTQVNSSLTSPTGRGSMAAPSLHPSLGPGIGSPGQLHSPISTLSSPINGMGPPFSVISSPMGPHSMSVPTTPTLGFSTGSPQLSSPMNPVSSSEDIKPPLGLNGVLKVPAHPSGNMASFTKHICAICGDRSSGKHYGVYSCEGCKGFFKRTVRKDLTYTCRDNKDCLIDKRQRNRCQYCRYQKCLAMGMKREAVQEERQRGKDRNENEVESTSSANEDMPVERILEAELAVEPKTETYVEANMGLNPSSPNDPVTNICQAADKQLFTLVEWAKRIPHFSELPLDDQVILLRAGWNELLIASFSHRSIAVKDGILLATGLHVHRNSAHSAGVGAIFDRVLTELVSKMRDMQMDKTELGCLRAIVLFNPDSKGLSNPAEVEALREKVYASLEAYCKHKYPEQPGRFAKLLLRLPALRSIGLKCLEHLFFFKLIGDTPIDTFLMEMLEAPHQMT
- assay overview: holoreceptor transactivation assay
Just the number please, in nM, no unit attached.

# count of solved cases: 2
> print(dat)
                            compound.smiles  property.measured  unit.annotation  measured.result
1  CCC1=CCC(C)(C)c2cc(C)c(N(CC)c3ccc(C(=O)O)cc3)cc21               EC50               nM                1
2  C=CCN(c1ccc(C(=O)O)cc1)c1ccc2c(c1)C(C(C)(C)C)=CCC2(C)C               EC50               nM               12

Would you kindly look at the next entry?
Complete the entry with EC50 for `CCCN(c1ccc(C(=O)O)cc1)c1ccc2c(c1)C(C(C)(C)C)=CCC2(C)C` 1

* * *

- measured on: RXRβ (UniProt P28704)
- assay overview: ligand binding assay
- condition label: read-out: RXR Bind Ki (nM) β
property measured: Ki (nM)
The reply should contain only the number, in nM.

Known results for molecules:
> print(dat)
                                   molecule  measured.result
1  CCN(c1ccc(C(=O)O)cc1)c1cc2c(cc1OCc1ccc(C)cc1)C(C)(C)CC=C2C(C)C [Compound 155]              334
2  CCC1=CCC(C)(C)c2cc(C)c(N(CC)c3ccc(C(=O)O)cc3)cc21 [Compound 24]               66

Below: the item to evaluate.
Give the reported Ki for this molecule. CCCN(c1ccc(C(=O)O)cc1)c1cc2c(cc1OCc1ccccc1)C(C)(C)CC=C2C [Compound 147] 501

* * *

Listing of recorded log10 of EC50 by entry.
- measured on: RXRγ (UniProt P28705)
- assay overview: holoreceptor transactivation assay
- Assay type: cell-based
- condition label: NA = Not Active; read-out: RXR Trans. EC50 (nM) Y
Recall that a logarithmic scale is used here: each number is log10 of EC50 in nM.

> print(dat)
                            compound.smiles  measured.result
1  CCN(c1ccc(C(=O)O)cc1)c1cc2c(cc1OC)C(C)(C)CC=C2C(C)C             0.30
2  CCN(c1ccc2c(c1)C(C)=CCC2(C)C)c1ccc(C(=O)O)cn1             1.83
3  CCCN(c1ccc(C(=O)O)cc1)c1ccc2c(c1)C(C(C)(C)C)=CCC2(C)C             0.00
4  CCN(c1ccc(C(=O)O)cc1)c1ccc2c(c1)C(C(C)(C)C)=CCC2(C)C             0.70
5  CCN(c1ccc(C(=O)O)cc1)c1cc2c(cc1C)C(C)(C)CC=C2C(C)C            -0.70
6  C=CCN(c1ccc(C(=O)O)cc1)c1ccc2c(c1)C(C(C)(C)C)=CCC2(C)C             1.08
7  CCN(c1ccc(C(=O)O)cc1)c1cc2c(cc1C)C(C)(C)CC=C2C(C)(C)C            -0.30
8  CCN(c1ccc2c(c1)C(C(C)C)=CCC2(C)C)c1ccc(C(=O)O)cn1             0.30
9  CCN(c1ccc(C(=O)O)cc1)c1cc2c(cc1C)C(C(C)(C)C)=CCC2(C)C             2.26

Return reported log10 of EC50. Input compound: `CCN(c1ccc(C(=O)O)cc1)c1cc2c(cc1C)C(C)(C)CC=C2C` 1.61

* * *

- measured on: UniProt:P10826
- Sequence (P10826 1-455): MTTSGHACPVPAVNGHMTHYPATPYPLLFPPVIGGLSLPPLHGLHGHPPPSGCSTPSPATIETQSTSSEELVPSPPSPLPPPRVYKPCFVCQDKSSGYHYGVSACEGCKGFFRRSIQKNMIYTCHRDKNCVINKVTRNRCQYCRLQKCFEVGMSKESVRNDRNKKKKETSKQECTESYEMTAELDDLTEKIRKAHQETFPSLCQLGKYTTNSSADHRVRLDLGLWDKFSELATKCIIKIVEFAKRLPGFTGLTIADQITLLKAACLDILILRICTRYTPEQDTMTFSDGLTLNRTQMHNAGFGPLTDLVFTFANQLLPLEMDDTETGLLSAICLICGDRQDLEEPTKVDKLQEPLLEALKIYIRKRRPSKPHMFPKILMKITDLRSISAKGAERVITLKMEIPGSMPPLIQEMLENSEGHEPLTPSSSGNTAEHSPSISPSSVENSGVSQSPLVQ
- assay overview: ligand binding assay
- condition label: read-out: RAR Bind. Ki (nM) β
property measured: Ki (nM)
Field: numeric (nM). Do not append units.

Consider the following illustrative entries.
> print(dat)
                                   molecule  measured.result
1  CCN(c1ccc(C(=O)O)cc1)c1cc2c(cc1OCc1ccccc1)C(C)(C)CC=C2C(C)(C)C [Compound 158]              374
2  CCN(c1ccc(C(=O)O)cc1)c1cc2c(cc1C)C(C)(C)CC=C2C [Compound 23]            16000
3  CCCN(c1ccc(C(=O)O)cc1)c1cc2c(cc1OCc1ccccc1)C(C)(C)CC=C2C [Compound 147]             4800
4  CCN(c1ccc2c(c1)C(C(C)C)=CCC2(C)C)c1ccc(C(=O)O)cn1 [Compound 172]             6000
5  CCN(c1ccc(C(=O)O)cc1)c1cc2c(cc1C)C(C)(C)CC=C2C(C)(C)C [Compound 26]             1300
6  CCN(c1ccc(C(=O)O)cc1)c1cc2c(cc1OCc1ccccc1)C(C)(C)CC=C2C [Compound 144]             2700
7  CCCCCCOc1cc2c(cc1N(CCC)c1ccc(C(=O)O)cc1)C(C)=CCC2(C)C [Compound 145]              771
8  CCC1=CCC(C)(C)c2cc(C)c(N(CC)c3ccc(C(=O)O)cc3)cc21 [Compound 24]             9100

Provide one value: measured Ki of CCCOc1cc2c(cc1N(CC)c1ccc(C(=O)O)cc1)C(C(C)C)=CCC2(C)C [Compound 150] 3800

Supply measured Ki of CCCCCCOc1cc2c(cc1N(CC)c1ccc(C(=O)O)cc1)C(C)=CCC2(C)C [Compound 142] in your reply. 1000

Output Ki of CCN(c1ccc(C(=O)O)cc1)c1cc2c(cc1C)C(C)(C)CC=C2C(C)C [Compound 25] 6400

Supply reported Ki belonging to this molecule: CCN(c1ccc(C(=O)O)cc1)c1cc2c(cc1OCc1ccc(C)cc1)C(C)(C)CC=C2C(C)C [Compound 155] 1400

Tell me Ki reported for CCCCCCCOc1cc2c(cc1N(CC)c1ccc(C(=O)O)cc1)C(C)=CCC2(C)C [Compound 143] 1700

* * *

- measured on: RXRβ (UniProt P28704)
- Sequence (P28704 1-520): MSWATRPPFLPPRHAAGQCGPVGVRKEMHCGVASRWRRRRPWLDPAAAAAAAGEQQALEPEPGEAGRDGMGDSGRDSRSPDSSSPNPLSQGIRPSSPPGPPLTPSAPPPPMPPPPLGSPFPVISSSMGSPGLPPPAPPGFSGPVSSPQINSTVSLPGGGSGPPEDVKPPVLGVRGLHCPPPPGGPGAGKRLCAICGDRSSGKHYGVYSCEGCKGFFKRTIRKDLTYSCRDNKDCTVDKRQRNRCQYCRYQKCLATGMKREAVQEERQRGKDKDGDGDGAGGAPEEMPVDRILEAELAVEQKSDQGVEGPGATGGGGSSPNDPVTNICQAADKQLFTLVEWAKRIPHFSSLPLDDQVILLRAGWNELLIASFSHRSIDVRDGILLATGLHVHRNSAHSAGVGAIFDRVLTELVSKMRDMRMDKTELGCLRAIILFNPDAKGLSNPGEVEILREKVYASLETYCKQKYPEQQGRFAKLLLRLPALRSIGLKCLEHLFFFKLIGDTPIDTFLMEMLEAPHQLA
- assay overview: ligand binding assay
- condition label: read-out: RXR Bind Ki (nM) β
property measured: Ki (nM)
Please state the figure in nM; there is no need to write the unit.

Here are 3 compounds together with their reported answers.
> print(dat)
                            compound.smiles  property.measured  measured.result
1  C=CCN(c1ccc(C(=O)O)cc1)c1ccc2c(c1)C(C(C)(C)C)=CCC2(C)C                 Ki               84
2  CCN(c1ccc(C(=O)O)cc1)c1cc2c(cc1C)C(C(C)(C)C)=CCC2(C)C                 Ki              426
3  CCN(c1ccc(C(=O)O)cc1)c1cc2c(cc1OCc1ccccc1)C(C)(C)CC=C2C                 Ki              224

Determine from records and report Ki for `CCN(c1ccc(C(=O)O)cc1)c1cc2c(cc1C)C(C)(C)CC=C2C(C)C` 20

Read off the recorded Ki for `Cc1cc2c(cc1N(C)c1ccc(C(=O)O)cc1)C(C)(C)CC=C2C(C)C` 2700

For the compound `CCN(c1ccc(C(=O)O)cc1)c1ccc2c(c1)C(C(C)(C)C)=CCC2(C)C` , give its measured Ki value. 12

Answer with the recorded Ki for the compound listed here: `CCCN(c1ccc(C(=O)O)cc1)c1cc2c(cc1OCc1ccccc1)C(C)(C)CC=C2C(C)C` 46

Report Ki, nothing else, for this compound: `CCN(c1ccc2c(c1)C(C)=CCC2(C)C)c1ccc(C(=O)O)cn1` 190

Please supply the value of reported Ki for the item `CCN(c1ccc(C(=O)O)cc1)c1cc2c(cc1OCc1ccccc1)C(C)(C)CC=C2C(C)(C)C` 3

Provide one value: measured Ki of `CCCN(c1ccc(C(=O)O)cc1)c1ccc2c(c1)C(C(C)(C)C)=CCC2(C)C` 34
